- test-system: Fibroblast growth factor 2 (Homo sapiens) (UniProt P09038)
- Sequence (P09038 whole entry, looked up): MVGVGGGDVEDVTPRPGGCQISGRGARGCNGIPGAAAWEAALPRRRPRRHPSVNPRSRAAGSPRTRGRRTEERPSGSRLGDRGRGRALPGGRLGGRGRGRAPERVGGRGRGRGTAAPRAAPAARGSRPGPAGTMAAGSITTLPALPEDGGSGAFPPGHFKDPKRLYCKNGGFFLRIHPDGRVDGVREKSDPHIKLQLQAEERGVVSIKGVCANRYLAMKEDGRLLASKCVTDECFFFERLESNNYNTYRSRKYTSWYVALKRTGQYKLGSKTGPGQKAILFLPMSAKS
- protocol-summary: FGF2 binders on small-molecule microarrays, primary screen, biochemical, small-molecule microarray, 635/667 nm fluorescence (AID 1133)
- condition-label: small-molecule microarray binding, FGF2, fluorescence 635/667; higher = more signal
reported-property: composite z-score
Numbers only.

CC(C)CN1C(=O)[C@@]2(Cc3ccccc31)c1ccccc1C(=O)N(Cc1ccccc1C(F)(F)F)[C@H]2c1ccc(CO)cc1 : -0.425
O=C1NC(=O)C2C1C=CC(C(O)c1c(F)cccc1Cl)N2Nc1ccccn1 (stereo not given) : 0.731
O=C1O[C@@H](c2ccccc2)[C@@H](c2ccccc2)N2[C@@H](c3ccc(O)cc3)[C@]3(C(=O)Nc4ccccc43)[C@@H](C(=O)Nc3nc4ccccc4s3)[C@H]12 : 0.398
CCCCN1CC=CC23O[C@@H]4/C=C\CCC(C)OC(=O)C4[C@H]2C(=O)N(CCCCCCO)[C@@H]3C1=O (stereo not given in full) : -0.668
COCCOC(=O)N1C(=O)[C@@]2(c3cc(C#CC4=CCCCC4)ccc31)[C@H](c1ccc(O)cc1)N1[C@H](c3ccccc3)[C@H](c3ccccc3)OC(=O)[C@H]1[C@@H]2C(=O)Nc1nc2ccccc2s1 : 1.08
CN1C2C=C(CCCO)C(C3C(=O)N(C(N)=O)C(=O)C32)C1c1cccs1 (stereo not given) : -0.22
O=C1O[C@@H](c2ccccc2)[C@@H](c2ccccc2)N2[C@@H](c3ccccc3OCCO)[C@]3(C(=O)Nc4ccccc43)[C@@H](C(=O)NC[C@H](O)c3ccccc3)[C@H]12 : -0.452
O=C1OCCC=C[C@H]2OC34C=CCN(c5ccc(Cl)cc5)C(=O)[C@H]3N(CCCCCO)C(=O)[C@@H]4C12 (stereo not given in full) : -0.297

State the recorded composite z-score for every item in the following list.
1. [N-]=[N+]=Nc1ccccc1C[C@@]1(C(=O)O)N=C(c2ccc(OCCCO)cc2)O[C@@H]1c1ccccc1
2. CC[C@@H]1[C@H]2C3C(=O)N(CC)C(=O)C3CC(=O)[C@H]2[C@H](c2ccc(C)cc2)N1S(=O)(=O)c1ccc(C)cc1 (stereo not given in full)
3. O=C1C2C=CC(C(O)c3cc(C(F)(F)F)cc(C(F)(F)F)c3)N(Nc3ccc([N+](=O)[O-])cc3)C2C(=O)N1c1ccccc1 (stereo not given)
4. COc1ccc(NN2C(C(O)c3ccccn3)C=CC3C(=O)N(C4CCCCC4)C(=O)C32)cc1 (stereo not given)
5. C=CCN1Cc2ccccc2C[C@@]2(N=C(c3ccc(OCCCO)cc3)O[C@H]2c2ccccc2)C1=O
6. C=CC[C@@]12N=C(c3ccc(OCCCO)cc3)O[C@@H]1c1ccccc1N(CCS(=O)(=O)c1ccccc1)C2=O
7. C=CCN1C(=O)[C@@]2(O[C@@H](CCO)[C@H]([Si](C)(C)c3ccc(OC)cc3)[C@H]2C)c2cc(N3C(=O)c4ccccc4Oc4ccccc43)ccc21

-- reply
1: -0.0664; 2: 0.087; 3: 0.4; 4: 0.421; 5: 0.955; 6: 1.55; 7: 0.675

----------
- protocol-summary: fission yeast growth modulation, primary screen, strain 972, OD600, 24 h, no modulator (AID 1090);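 note: basal condition with compound alone and no growth modifier present; test concentration not given here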
- condition-label: S. pombe 972 growth, higher = more signal, called active from +8 up or from −8 down
reported-property: z-score
Answers are plain numbers.

Illustrative cases are given below, each with its answer.
CC(=O)n1cc(C(O)C2C=CC3C(=O)N(c4ccccc4)C(=O)C3N2Nc2ccccc2)c2ccccc21 (configuration not stated) : 0.965
COCCOC(=O)N1C(=O)[C@@]2(c3cc(C#Cc4ccc(OC)cc4)ccc31)[C@H](C(=O)N1CCCCCCC1)[C@H]1C(=O)O[C@H](c3ccccc3)[C@H](c3ccccc3)N1[C@@H]2c1ccc(O)cc1 : 0.318
C=CC[C@@]12N=C(c3ccc(OCCCO)cc3)O[C@@H]1c1ccccc1N(CCS(=O)(=O)c1ccccc1)C2=O : -1.56
Cc1c(NC(=O)/C(C#N)=C/C=C/c2ccccc2[N+](=O)[O-])c(=O)n(-c2ccccc2)n1C : -0.322
C=C(C(=O)CC[C@H](OC(=O)c1cccnc1)c1cccc(OCCO)c1)C(C)C : 0.167
CO[C@H]1O[C@H](CO)[C@@H](OC(=O)Nc2ccc(Oc3ccccc3)cc2)[C@H](OC(=O)Nc2ccccc2-c2ccccc2)[C@@H]1OC(=O)Nc1ccccc1-c1ccccc1 : 0.592

-- ask I am curious: what z-score value has been reported for COC(=O)[C@@]1(Cc2ccc(OC)cc2)[C@H]2c3cc(C(=O)N(C)C)n(CCc4c[nH]c5ccc(O)cc45)c3C[C@H]2CN1C(=O)c1ccccc1 ?
-- reply 0.466

----------
- test-system: Dihydroorotate dehydrogenase (quinone), mitochondrial (Plasmodium falciparum (isolate 3D7))
- protocol-summary: PfDHODH enzyme inhibitors, primary screen, biochemical, C-terminal His tag, absorbance 600 nm (AID 1175);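 note: recombinant parasite enzyme with a five histidine tag at its C terminus; test concentration not given here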
- condition-label: DCIP absorbance 600 nm, higher = more signal, called active from +8 up or from −8 down
Rule: composite z-score under -0.2 gives not fulfilled, otherwise fulfilled.

These recorded examples may help you get a feel for the data.
C=CCC(OC(C)=O)[C@@H]1[C@@H](N(Cc2cc3ccccc3o2)C(=O)Cc2ccc(F)cc2)c2cc(OCCCO)ccc2N1C(=O)c1ccc2ccccc2n1 (some centres not stated) : not fulfilled
CCOC(=O)C[C@H]1[C@H](OC(=O)c2ccccc2-c2ccccc2)[C@@H](NC(=O)CC(C)C)c2cc(OCCCO)ccc2N1C(=O)c1ccc2ccccc2n1 : fulfilled
CN(C)CCCNC(=O)[C@@]1(C)c2ccccc2C(=O)N(Cc2cc(C(F)(F)F)cc(C(F)(F)F)c2)[C@H]1c1ccc(CO)cc1 : fulfilled
COc1ccc([Si](C)(C)[C@H]2[C@H](CCn3cc([C@H](O)c4ccccc4)nn3)O[C@@]3(C(=O)N(Cc4ccc(N5CCOC5=O)cc4)c4ccccc43)[C@@H]2C)cc1 : fulfilled
COc1ccc(NN2C(C(O)c3ccco3)C=CC3C(=O)N(C4CCCCC4)C(=O)C32)cc1 (configuration not stated) : fulfilled

-- ask Say whether CC=CC(O)C1C=CC2C(=O)N(C)C(=O)C2N1N1CCCCC1 (configuration not stated) shows composite z-score of -0.2 or more.
-- reply not fulfilled

-- ask Say whether COCC(=C=CC[C@H](O)c1ccc(OCCO)cc1)C[C@H](O)COCc1ccccc1 shows composite z-score of -0.2 or more.
-- reply not fulfilled

----------
- test-system: Torsin-1A (Homo sapiens) (UniProt O14656)
- Sequence (O14656 whole entry, looked up): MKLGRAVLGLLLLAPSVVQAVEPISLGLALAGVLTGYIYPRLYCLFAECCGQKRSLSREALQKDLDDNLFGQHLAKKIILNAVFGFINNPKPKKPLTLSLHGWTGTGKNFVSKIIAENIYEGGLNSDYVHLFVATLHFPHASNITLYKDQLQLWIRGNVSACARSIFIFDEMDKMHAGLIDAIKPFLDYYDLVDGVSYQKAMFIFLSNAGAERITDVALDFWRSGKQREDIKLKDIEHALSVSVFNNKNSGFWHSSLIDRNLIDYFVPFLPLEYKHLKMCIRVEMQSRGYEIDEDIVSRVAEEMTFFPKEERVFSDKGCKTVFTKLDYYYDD
- protocol-summary: torsin A binders from cell lysate, primary screen, small-molecule microarray, wild-type, 635/667 nm (AID 1149)
- condition-label: COS7 hTOR1A-WT lysate, 635 nm fluorescence, higher = more signal
So I've got a bunch of molecules here, and I need their composite z-score values.
One number for each entry.

C=CCOC(=O)[C@@H]1[C@H]2C(=O)O[C@H](c3ccccc3)[C@H](c3ccccc3)N2[C@H](c2ccc(OCCOC(=O)[C@H]3C[C@H]4C(=O)N[C@@H](CCCCNC(C)=O)C(=O)N4[C@H]3c3cccc(OCCO)c3)cc2)[C@@]12C(=O)Nc1ccc(I)cc12 : 1.01

State the recorded composite z-score for every item in the following list.
1. COc1ccc(NC(=O)O[C@H]2[C@H](OC(=O)Nc3ccc4c(c3)OCO4)[C@@H](OC(=O)Nc3ccc4c(c3)OCO4)[C@@H](OC)O[C@@H]2CO)cc1
2. CC(C)c1ccc(NN2C(C(O)c3ccco3)C=CC3C(=O)N(c4ccccc4)C(=O)C32)cc1 (stereo unspecified)
3. COc1cc(OC)c(C(O)C2C=CC3C(=O)N(c4ccccc4)C(=O)C3N2Nc2ccc(C#N)cc2)cc1Br (stereo unspecified)
4. CCOC(=O)C[C@H]1[C@H](OC(=O)c2ccc(-c3ccccc3)cc2)[C@@H](NC(=O)c2ccc3ccccc3c2)c2cc(OCCCO)ccc2N1C(=O)c1ccc2ccccc2n1

-- reply
0.812
0.185
0.367
0.138

-- ask I am curious: what composite z-score value has been reported for O=C1C[C@]2(c3ccc([N+](=O)[O-])cc3)C(=O)N(Cc3ccccc3)c3cc(CO)ccc3[C@H]2N1CC12CC3CC(CC(C3)C1)C2 ?
-- reply -0.659

----------
- protocol-summary: modulators of S6 phosphorylation in cells, primary screen, cell-based, A549, cytoblot, luminescence, serum-stimulated (AID 1158);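 note: serum-stimulated A549 lung adenocarcinoma cells; signal is phosphorylated S6 detected by cytoblot immunostaining with HRP secondary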
- condition-label: A549 phospho-S6 cytoblot, 5 h, higher = more signal
So I've got a bunch of molecules here, and I need their z-score values.
Answers are plain numbers.

State the recorded z-score for every item in the following list.
1. C=CCOC(=O)[C@@H]1[C@H]2C(=O)O[C@H](c3ccccc3)[C@H](c3ccccc3)N2[C@H](c2ccc(OCCOC(=O)[C@H]3C[C@H]4C(=O)N[C@@H](CCCC[N+](C)(C)C)C(=O)N4[C@H]3c3ccc(O)cc3)cc2)[C@@]12C(=O)Nc1ccc(I)cc12
2. COCCOC(=O)N1C(=O)[C@@]2(c3cc(C#CC4=CCCCC4)ccc31)[C@H](c1ccccc1OCCO)N1[C@H](c3ccccc3)[C@H](c3ccccc3)OC(=O)[C@H]1[C@@H]2C(=O)N1CCc2cc(OC)c(OC)cc2C1
3. CCOC(=O)[C@@H]1[C@@H]2C(=O)N(CC)C(=O)[C@@H]2C[C@@H]1Sc1ccccc1
4. O=C(CS)NCCCCCCNC(=O)[C@H]1C[C@H]2C(=O)N[C@@H](Cc3ccccc3)C(=O)N2[C@H]1c1cccc(OCCO)c1
5. O=C1OCC=C[C@H]2OC34C=CCN(Cn5nnc6ccccc65)C(=O)[C@H]3N(CCCCCCO)C(=O)[C@@H]4[C@@H]12 (stereo partly specified)
6. CN1C(=O)C2C=CC(C(O)C3CCCCC3)N(N3CCCCC3)C2C1=O (stereo unspecified)

-- reply
1. -0.281
2. 0.128
3. -0.502
4. 0.882
5. -0.394
6. -0.659

Where do the numbers come from? From PubChem BioAssay.
